Numbers sourced from the supplement of paper PMC10126150.

Tested on: ATP;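 note: ATP exposure 15 min at 22 °C before imaging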
Method Description: switch fluorescence ratio, 500 uM ATP over buffer (Cy3 cluster intensity, sum of 5 cycles each) (fold (ratio)); higher = stronger signal-on switching upon ATP binding; sequences stand for … in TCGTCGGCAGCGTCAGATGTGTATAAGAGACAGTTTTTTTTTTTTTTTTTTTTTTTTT…TC
Test Conditions: aptamer strand: ATP DNA aptamer (quencher-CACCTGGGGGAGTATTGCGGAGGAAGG + anchor), 100 nM annealed; ATP concentration: 500 uM
We use 1 as the dividing line for switch fluorescence ratio: on or above the line is rule met, below is rule not met.

State whether the measured switch fluorescence ratio reaches 1, counting equality as reaching it, for TTGGGGTGGC
rule not met

State whether the measured switch fluorescence ratio reaches 1, counting equality as reaching it, for TATCTTTGCG
rule not met

State whether the measured switch fluorescence ratio reaches 1, counting equality as reaching it, for TGGAGCAGGG
rule met

State whether the measured switch fluorescence ratio reaches 1, counting equality as reaching it, for TGACGCCGAA
rule met

State whether the measured switch fluorescence ratio reaches 1, counting equality as reaching it, for AACTATCTTT
rule met

State whether the measured switch fluorescence ratio reaches 1, counting equality as reaching it, for ACCACGGTGT
rule met

State whether the measured switch fluorescence ratio reaches 1, counting equality as reaching it, for GGCAGTATTT
rule met

State whether the measured switch fluorescence ratio reaches 1, counting equality as reaching it, for GGTCTTCCGC
rule met

State whether the measured switch fluorescence ratio reaches 1, counting equality as reaching it, for TAGGGCACGA
rule not met

State whether the measured switch fluorescence ratio reaches 1, counting equality as reaching it, for TTTCATTACT
rule met

State whether the measured switch fluorescence ratio reaches 1, counting equality as reaching it, for ACGTAGCTTT
rule met
